test system: HMG-CoA reductase (Enterococcus faecalis, mvaE); experiment: class II HMG-CoA reductase enzyme inhibition – biochemical, Enterococcus faecalis, primary screen (AID 1066);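 further: enzyme runs in reverse so mevalonate oxidation gives rising NADPH absorbance; 0% = complete reaction with DMSO and 100% = background rate lacking mevalonate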; settings: purified E. faecalis HMGR, NADPH absorbance 340 nm kinetic; at 10 µM; active compounds read high
About 790 (0.42%) of roughly 190,000 compounds were called active. This is one part of a sample in which actives are shown more often than they occur.
quantity_measured: inhibition (%)

1) Cc1nc2sc3c(c2c(=O)n1NC(=O)CCl)CCCC3 = -4.51
2) CCOC(=O)C1(O)CC(C)=NN1C(=O)c1cccc(Br)c1 (stereo unspecified) = 16.5
3) CCc1ccc(NC(=O)Nc2ccncc2)cc1 = -0.38
4) O=C(CCc1[nH]c2ccccc2c1Sc1ccccc1)N(CCO)CCO = -1.48
5) Cc1cccc(-n2cc(CN3CCN(C(=O)c4ncn[nH]4)CC3)c(-c3cccc(F)c3)n2)c1 = -4.4
6) COc1cc(NS(=O)(=O)c2ccc(NC(=O)CN3C(=O)c4ccccc4C3=O)cc2)ncn1 = -9.27
7) Cc1ccc2nc(Nc3ncc4c(n3)CC(C)(C)CC4=O)nc(C)c2c1 = -0.8
8) CC1CC(=S)Nc2ccccc2N1Cc1ccccc1 (stereo unspecified) = -4.09
9) CN(C)/C=C/C(=O)c1cnc2sccn2c1=O = 2.25
10) O=C(COc1cccc(F)c1)Oc1ccc(C(=O)c2ccccc2)cc1 = 11.7
11) O=C(Oc1ccccc1)c1ccc2nccnc2c1 = -2.55
12) COc1ccc(-c2cc(-c3ccc(N)cc3)nc(N)c2C#N)cc1OC = 11.6
13) CC1=NN(C(=O)c2ccccc2Br)C(O)(c2cccnc2)C1 (stereo unspecified) = 0.91
14) CC(C)(C)C(=O)N1CCC[C@@]1(CO)C(=O)O = -3.2
15) C=CCN(CC=C)CCOc1ccccc1[N+](=O)[O-] = -2.7
16) COC(=O)/C(NC(C)=O)=C(\C)c1ccc(Cl)cc1 = -0.22
17) O=C(CCc1ccccc1)Nc1ccc(NC(=O)C2CCCCC2)nc1 = -5.74
18) CS(=O)(=O)N(Cc1ccccc1)c1ccc(C(=O)NN=C2CCCCCC2)cc1 = -2.77
19) O=C(/C=C/c1ccc(Cl)cc1)Nc1ccc(S(=O)(=O)Nc2ncccn2)cc1 = 1.98
20) CCNC(=O)N1c2ccccc2Sc2ccccc21 = -0.32
21) CCc1cccc(C)c1NC(=O)COC(=O)Cc1ccsc1 = 0.78
22) CCN(C(=O)c1ccc(Br)cc1)c1ccccc1 = -0.76
23) COc1ccc(F)cc1C(=O)C1CCCN(C(=O)CCc2ccccn2)C1 (stereo unspecified) = -4.06
24) COC(=O)C(=Nc1ccccc1)/C(C(=O)C(=O)N(C)c1ccccc1)=C(\O)c1ccc(Cl)cc1 = 12.8
25) CCOc1ccc(-c2ccc(SCC(=O)N3CCOCC3)nn2)cc1 = -2.28
26) COCCN(C(=O)C(C)C)c1nnc(-c2ccc(C(C)(C)C)cc2)s1 = -2.5
27) CCOC(=O)Cc1csc(NC(=O)Nc2ccccc2)n1 = 12.1
28) CCOC(=O)CC(NC(=O)C1c2ccccc2Oc2ccccc21)c1ccc(C)cc1 (stereo unspecified) = -0.18
29) NC(N)=NCCCc1cn(CC(=O)N2CCNCC2)nn1 = -8.27
30) O=C(c1ccccc1Cl)N(Cc1ccccc1F)N1C(=O)CCCC1=O = -5.67
31) CCc1cc(CNC(=O)CC2C(=O)NCCN2CC2CCCCC2)on1 (stereo unspecified) = 1.73
32) COc1cc(/C=C2/C(=O)ON=C2C)ccc1OCc1ccccc1F = -4.22
33) Cc1cc(C(=O)N/N=C/c2cc([N+](=O)[O-])cc(C)c2O)n[nH]1 = 1.28
34) CCN(C(=O)CSc1nnc2ccccn12)C1CCS(=O)(=O)C1 (stereo unspecified) = -6.19
35) O=C1Nc2ccc([N+](=O)[O-])cc2C1=Nc1cccc(CO)c1 = -7.75
36) NC(=O)COc1ccc(C23CC4CC(CC(C4)C2)C3)cc1 = 6.59
37) CCN(CC)c1ccc(S(=O)(=O)N2CCOCC2)cc1NC(=O)CSc1cccc[n+]1[O-] = -6.45
38) CNCC(O)CN1CCN(c2ccccc2OC)CC1 (stereo unspecified) = -5.06
39) Cc1onc(C(=O)NN)c1C(=O)N1CCN(C(c2ccccc2)c2ccccc2)CC1 = -0.47
40) CCSc1nc(-c2ccc(OC)cc2)cc(-c2ccc(OC)cc2)c1C#N = -8.44
41) CC(C)(C)c1csc(NC2=NS(=O)(=O)c3ccccc32)n1 = -4.26
42) CC1=NN(C(=O)c2ccc(Br)cc2)C(O)(c2ccccc2)C1 (stereo unspecified) = 3.11
43) COc1cc(/C=N/n2c(C)n[nH]c2=S)ccc1OCc1ccccc1 = 5.27
44) O=C1c2ccccc2NC(c2ccccn2)N1NS(=O)(=O)c1ccccc1 (stereo unspecified) = -5.78
45) CCOC(=O)C1CCCN(C(=O)c2cccc(S(=O)(=O)N3CCOCC3)c2)C1 (stereo unspecified) = 2.45
46) CC(=O)NS(=O)(=O)c1ccc(NC(=O)/C=C/c2ccccc2Cl)cc1 = 4.83
